B1: ZNF232 (parent)
chain: HSGEKPFICKECGKAYGWCSELIR

Variants of: B1
Assay: protein stability index of a GFP-peptide fusion (GPS, HEK-293T) (PSI 1-6); higher = more stable;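 further: lentivirally expressed fusions sorted by FACS into six bins by GFP to DsRed ratio, PSI derived from sequencing read proportions per bin multiplied by bin number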
Details: c terminus: a fixed tail appended
What protein stability index was measured for each of the following?
Numbers only.

Sample records with protein stability index:
* K10Y | 1.99
* W18N | 2.03
* R24V | 2.02

Quick one: protein stability index of I23V ?
1.97
